target: T1, human single-chain CD1a-β2M recombinant protein (Human B2M-CD1a ECD-Avi-His6) (human); assay: SPR (Biacore), IgG; antigen taken as human CD1a
T1 construct: Biotinylated in the HTRF, phage selection and Gyrolab assays; also called human CD1a; CD1a protein
T1 sequence (chain, as listed by the source limits assumed): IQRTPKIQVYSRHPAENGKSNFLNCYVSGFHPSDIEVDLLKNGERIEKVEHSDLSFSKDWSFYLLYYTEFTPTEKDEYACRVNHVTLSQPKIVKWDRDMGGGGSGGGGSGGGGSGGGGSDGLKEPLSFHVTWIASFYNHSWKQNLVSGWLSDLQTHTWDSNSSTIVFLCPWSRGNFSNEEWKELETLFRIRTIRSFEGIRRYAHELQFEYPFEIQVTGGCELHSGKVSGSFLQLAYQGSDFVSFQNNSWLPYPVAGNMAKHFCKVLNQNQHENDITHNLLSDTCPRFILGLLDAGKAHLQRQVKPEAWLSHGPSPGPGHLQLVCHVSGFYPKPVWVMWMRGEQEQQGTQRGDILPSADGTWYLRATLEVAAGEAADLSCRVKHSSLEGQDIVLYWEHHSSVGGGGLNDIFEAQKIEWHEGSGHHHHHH
readoutType: Kd (pM)
Entry rule: numbers only, all in pM.

>>> measurednumber("Ab656 (antibody, human IgG1, kappa, V domains shown, Optimized variant of Ab138; human IgG1 effector null / kappa; HC with or without terminal lysine) VH: EVQLVESGGGLVQPGGSLRLSCAASGFDFTDHYMHWVRQAPGKGLEWVAHTRDKAGGYTTESNPAVKGRFTISRDNAKNSLYLQMNSLRAEDTAVYYCARETTRIPTGWFAYWGQGTLVTVSS VL: DIQMTQSPSSLSASVGDRVTITCLASEDIYFDLAWYQQKPGKAPKLLIYGGDRLQEGVPSRFSGSGSGTDYTLTISSLQPEDFATYYCQQSYSYPYTFGQGTKLEIKR")
540

Task: For the binder shown here, Ab657 (antibody, human IgG1, kappa, V domains shown, Optimized variant of Ab138; human IgG1 effector null / kappa; HC with or without terminal lysine) VH: EVQLVESGGGLVQPGGSLRLSCAASGFTFTDHYMHWVRQAPGKGLEWVAHTRDKAGGYTTESNPAVKGRFTISRDNAKNSLYLQMNSLRAEDTAVYYCARETTRIPTGWFAYWGQGTLVTVSS VL: DIQMTQSPSSLSASVGDRVTITCLASEDIYFDLAWYQQKPGKAPKLLIYGASTPKDGVPSRFSGSGSGTDYTLTISSLQPEDFATYYCQQSEKYPYTFGQGTKLEIKR , give the reported Kd.
Output: 410
